- tested-on: Nanoluciferase-BRD9 fusion protein (3×FLAG-NLuc-BRD9) in SYO-1 cells (Homo sapiens)
- Construct: expressed in transfected cells; host or cells: SYO-1
- measurement-description: SYO1 BRD9 NanoLuc Degradation Assay
- Type: cell-based
- test-settings: Table 6C; SYO-1 cells expressing 3×FLAG-NLuc-BRD9, 6 hours incubation, 1 μM top dose; read-out: SYO1 BRD9-NanoLuc degradation IC50
metric-name: DC50

Here is how some molecules turned out for DC50.
>  <molecule>
[2H]C([2H])([2H])n1cc(-c2cc(OC)c(CN3CCC4(CC3)CN(c3ccc5c(c3)C(=O)N(C3CCC(=O)NC3=O)C5)C4)c(OC)c2)c2cc(C3CC3)ncc2c1=O (centres unmarked) [Compound D233]

>  <tested-on>
Nanoluciferase-BRD9 fusion protein (3×FLAG-NLuc-BRD9) in SYO-1 cells (Homo sapiens)

>  <reported-value>
< 0.01 µM

$$$$
>  <molecule>
COc1cc(-c2cn(C)c(=O)c3cnc(C(F)(F)F)cc23)cc(OC)c1CN1CCN(CCC2CCN(c3ccc4c(c3)CN(C3CCC(=O)NC3=O)C4=O)CC2)CC1 (centres unmarked) [Compound D309]

>  <tested-on>
Nanoluciferase-BRD9 fusion protein (3×FLAG-NLuc-BRD9) in SYO-1 cells (Homo sapiens)

>  <reported-value>
< 0.01 µM

$$$$
>  <molecule>
COc1cc(-c2cn(C)c(=O)c3cnc(C(C)(C)C)cc23)cc(OC)c1CN1CCC(CN2CCC3(CC2)CC(Oc2ccc4c(c2)C(=O)N(C2CCC(=O)NC2=O)C4)C3)CC1 (centres unmarked) [Compound D214]

>  <tested-on>
Nanoluciferase-BRD9 fusion protein (3×FLAG-NLuc-BRD9) in SYO-1 cells (Homo sapiens)

>  <reported-value>
< 0.01 µM

$$$$
>  <molecule>
COc1cc(-c2cn(C)c(=O)c3cnc(N(C)C)cc23)cc(OC)c1C1CN(c2ccc3c(c2)C(=O)N(C2CCC(=O)NC2=O)C3)C1 (centres unmarked) [Compound D257]

>  <tested-on>
Nanoluciferase-BRD9 fusion protein (3×FLAG-NLuc-BRD9) in SYO-1 cells (Homo sapiens)

>  <reported-value>
< 0.01 µM

$$$$
>  <molecule>
COc1cc(-c2cn(C)c(=O)c3cnc(N(C)C)cc23)cc(OC)c1CN1CCC(c2ccc3c(c2)CN(C2CCC(=O)NC2=O)C3=O)CC1 (centres unmarked) [Compound D297]

>  <tested-on>
Nanoluciferase-BRD9 fusion protein (3×FLAG-NLuc-BRD9) in SYO-1 cells (Homo sapiens)

>  <reported-value>
< 0.01 µM

$$$$

// query Name the recorded DC50 for COc1cc(-c2nn(C)c(=O)c3cnc(N4CCC4)cc23)cc(OC)c1CN1CCC(CN2CCC3(CC2)CC(Oc2ccc4c(c2)C(=O)N(C2CCC(=O)NC2=O)C4)C3)CC1 (centres unmarked) [Compound D283] .
// result 0.1 to 1 µM

// query Would you kindly repeat that for COc1cc(-c2cn(C)c(=O)c3cnc(N4CC5(CC5)C4)cc23)cc(OC)c1CN1CC(CN2CCC3(CC2)CN(c2ccc4c(c2)C(=O)N(C2CCC(=O)NC2=O)C4)C3)C1 (centres unmarked) [Compound D201] ?
// result < 0.01 µM

// query Would you kindly repeat that for COc1cc(-c2cn(C)c(=O)c3cnc(N(C)C)cc23)cc(OC)c1CCN1CCC(CN2CCC3(CC2)CC(Oc2ccc4c(c2)C(=O)N(C2CCC(=O)NC2=O)C4)C3)CC1 (centres unmarked) [Compound D298] ?
// result < 0.01 µM

// query Would you kindly repeat that for COc1cc(-c2cn(C)c(=O)c3cnc(N(C)C)cc23)cc(OC)c1CN1CCC2(CC1)CC(N1CCN(C3CCC(=O)NC3=O)C(=O)C1)C2 (centres unmarked) [Compound D251] ?
// result ≥ 1 µM

// query Would you kindly repeat that for COc1cc2c(-c3cc(OC)c(CN4[C@H](C)CN(c5ccc6c(c5)C(=O)N(C5CCC(=O)NC5=O)C6)C[C@H]4C)c(OC)c3)cn(C)c(=O)c2cn1 (some centres unmarked) [Compound D281] ?
// result < 0.01 µM

// query Would you kindly repeat that for COc1cc(-c2cn(C)c(=O)c3cnc(N4CCC4)cc23)cc(OC)c1CN1CC(C(C)(C)N2CCC3(CC2)CN(c2ccc4c(c2)CN(C2CCC(=O)NC2=O)C4=O)C3)C1 (centres unmarked) [Compound D185] ?
// result < 0.01 µM

---

Let's look at some compounds and their measured DC50.
- tested-on: Nanoluciferase-BRD9 fusion protein (3×FLAG-NLuc-BRD9) in SYO-1 cells (Homo sapiens, UniProt Q9H8M2)
- Construct: expressed in transfected cells; host or cells: SYO-1
- measurement-description: SYO1 BRD9 NanoLuc Degradation Assay
- Format: cell-based
- test-settings: 6 hours; SYO-1 cells expressing 3×FLAG-NLuc-BRD9; top dose 1 μM; read-out: SYO1 BRD9-NanoLuc degradation IC50

>  <compound>
CNc1cc2c(=O)n(C)cc(-c3cc(OC)c(CN4CCN(C(=O)COc5cccc6c5C(=O)N(C5CCC(=O)NC5=O)C6=O)CC4)c(OC)c3)c2cn1 (centres unmarked) [Compound D29]

>  <DC50>
< 10 nM

$$$$
>  <compound>
CNc1cc2c(=O)n(C)cc(-c3cc(OC)c(CN4CCC5(CC4)CN(C(=O)CCCOc4cccc6c4C(=O)N(C4CCC(=O)NC4=O)C6=O)CCO5)c(OC)c3)c2cn1 (centres unmarked) [Compound D16, formic acid]

>  <DC50>
< 10 nM

$$$$

// query Name the recorded DC50 for COc1cc(-c2cn(C)c(=O)c3cnc(N(C)CCOCCOCCNc4ccc5c(c4)C(=O)N(C4CCC(=O)NC4=O)C5=O)cc23)cc(OC)c1CN(C)C (centres unmarked) [Compound D22, formic acid] .
// result ≥ 100 nM

// query Would you kindly repeat that for COc1cc(-c2cn(C)c(=O)c3cnc(N(C)C)cc23)cc(OC)c1CN(C)CCOCCN1CCN(c2ccc3c(c2)C(=O)N(C2CCC(=O)NC2=O)C3=O)CC1 (centres unmarked) [Compound D21] ?
// result < 10 nM

// query Would you kindly repeat that for COc1cc(-c2cn(C)c(=O)c3cnc(N(C)C)cc23)cc(OC)c1CN1CCC2(CC1)CN(C(=O)CCCCOc1cccc3c1C(=O)N(C1CCC(=O)NC1=O)C3=O)CCO2 (centres unmarked) [Compound D27, formic acid] ?
// result < 10 nM

---

- tested-on: Nanoluciferase-BRD9 fusion protein (3×FLAG-NLuc-BRD9) in SYO-1 cells (Homo sapiens, UniProt Q9H8M2)
- Construct: expressed in transfected cells; host or cells: SYO-1
- Sequence (Q9H8M2 1-597): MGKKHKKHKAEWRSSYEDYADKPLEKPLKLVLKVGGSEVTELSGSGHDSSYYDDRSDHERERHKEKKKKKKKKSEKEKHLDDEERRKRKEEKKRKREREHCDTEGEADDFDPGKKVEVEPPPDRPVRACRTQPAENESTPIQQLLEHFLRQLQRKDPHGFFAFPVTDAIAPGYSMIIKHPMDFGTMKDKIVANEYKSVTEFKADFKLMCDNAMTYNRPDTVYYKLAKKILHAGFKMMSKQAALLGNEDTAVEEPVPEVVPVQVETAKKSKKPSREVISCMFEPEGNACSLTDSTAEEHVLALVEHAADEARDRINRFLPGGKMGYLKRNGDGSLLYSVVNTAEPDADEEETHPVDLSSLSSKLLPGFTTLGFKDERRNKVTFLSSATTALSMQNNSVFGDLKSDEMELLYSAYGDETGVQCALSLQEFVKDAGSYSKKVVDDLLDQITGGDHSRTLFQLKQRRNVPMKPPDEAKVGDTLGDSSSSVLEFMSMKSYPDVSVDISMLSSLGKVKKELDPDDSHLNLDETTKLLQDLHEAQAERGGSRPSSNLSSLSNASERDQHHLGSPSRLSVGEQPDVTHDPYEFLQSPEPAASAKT
- measurement-description: SYO1 BRD9 NanoLuc Degradation Assay
- Type: cell-based
- test-settings: Table 6B; SYO-1 cells expressing 3×FLAG-NLuc-BRD9, 6 hours incubation, 1 μM top dose; read-out: SYO1 BRD9-NanoLuc degradation IC50
metric-name: DC50

>  <molecule>
COc1cc(-c2cn(C)c(=O)c3cnc(N4CCC4)cc23)cc(OC)c1CN1CCC(c2ccc3c(c2)C(=O)N(C2CCC(=O)NC2=O)C3=O)CC1C(F)(F)F (centres unmarked)

>  <DC50>
< 10 nM

$$$$
>  <molecule>
COc1cc(-c2cn(C)c(=O)c3cnc(N(C)C)cc23)c2c(c1)N(CCCCCCCCOc1cccc3c1C(=O)N(C1CCC(=O)NC1=O)C3=O)CC2 (centres unmarked)

>  <DC50>
10 to 100 nM

$$$$
>  <molecule>
COc1cc(-c2cn(C)c(=O)c3cnc(N(C)C)cc23)cc(OC)c1CN1CCC2(CC1)CN(c1ccc3c(c1)CN(C1CCC(=O)NC1=O)C3=O)C2 (centres unmarked)

>  <DC50>
< 10 nM

$$$$
>  <molecule>
COc1cc(-c2cn(C)c(=O)c3cnc(N(C)C)cc23)cc(OC)c1CC1CCN(c2ccc3c(c2)C(=O)N(C2CCC(=O)NC2=O)C3=O)CC1 (centres unmarked)

>  <DC50>
< 10 nM

$$$$

// query Name the recorded DC50 for COc1cc(-c2cn(C)c(=O)c3cnc(N(C)C)cc23)cc(OC)c1CN1CC(C(=O)N2CC3(CCN(c4ccc5c(c4)C(=O)N(C4CCC(=O)NC4=O)C5=O)C3)C2)C1 (centres unmarked) .
// result < 10 nM

Data credit: patent US12391686B2
